Where these numbers come from: PubChem BioAssay AID248

Tested on: L1210 leukemia ip in BDF1 mice, survival T/C
Assay: NCI In Vivo Anticancer Drug Screen. Data for tumor model L1210 Leukemia (intraperitoneal) in B6D2F1 (BDF1) mice
Conditions: endpoint: mean survival time; dose: 25.0 mg/kg/injection; schedule: Q01DX009 (ip); vehicle: saline with Tween-80; higher = longer survival
Toxic doses and inconclusive results are not listed.
measurement-kind: T/C

compound	experimental-target	measurement-kind	value
Cc1ccc(Cl)c2ccccc12	L1210 leukemia ip in BDF1 mice, survival T/C	T/C	104 % of control
COc1ccc(NC(=O)Nc2ccc(F)c([N+](=O)[O-])c2)c(Cl)c1	L1210 leukemia ip in BDF1 mice, survival T/C	T/C	95 % of control
COc1cccc2c(Cl)c(CCl)c(C)nc12	L1210 leukemia ip in BDF1 mice, survival T/C	T/C	97 % of control
CCOC(=O)C(OCc1ccccc1)(C(=O)Cl)C(C)C (stereo not given)	L1210 leukemia ip in BDF1 mice, survival T/C	T/C	98 % of control

Short answer on L1210 leukemia ip in BDF1 mice, survival T/C for `COc1ccc(/C=N/NC(=O)CNC(=O)c2ccccc2)cc1` , T/C: 93 % of control

Short answer on L1210 leukemia ip in BDF1 mice, survival T/C for `CCCCCCCCCCOB(OCCCCCCCCCC)OCCCCCCCCCC` , T/C: 93 % of control

Short answer on L1210 leukemia ip in BDF1 mice, survival T/C for O=C(O)c1ccccc1CN1CCCC(C(=O)O)C1 (stereo not given) , T/C: 92 % of control

* * *

Test system: L1210 leukemia ip in BDF1 mice, survival T/C
Assay: NCI In Vivo Anticancer Drug Screen. Data for tumor model L1210 Leukemia (intraperitoneal) in B6D2F1 (BDF1) mice
Details: endpoint: mean survival time; dose: 100.0 mg/kg/injection; schedule: Q04DX003 (ip); vehicle: other; higher = longer survival
Inconclusive results and toxic doses are left out.
Each entry below carries its reported T/C.

// worked examples, T/C included
compound	experimental-target	T/C
CC(C)(C)C(N)=O	L1210 leukemia ip in BDF1 mice, survival T/C	94 % of control
COc1cc(OCc2ccccc2)c(CC(=O)O)c([N+](=O)[O-])c1	L1210 leukemia ip in BDF1 mice, survival T/C	100 % of control
COc1ccc(OC)c(C2C(C#N)C(C=O)NC(C=O)C2C#N)c1 (stereo unspecified)	L1210 leukemia ip in BDF1 mice, survival T/C	107 % of control
Cc1cccc(CN(CC(=O)O)S(C)(=O)=O)c1	L1210 leukemia ip in BDF1 mice, survival T/C	100 % of control
CCOC(=O)Nc1cccc([N+](=O)[O-])c1	L1210 leukemia ip in BDF1 mice, survival T/C	93 % of control

Query COc1cccc(/C=N\NC(=O)C(C)SC(C)C(=O)N/N=C/c2cccc(OC)c2)c1 (stereo unspecified) yields T/C of 89 % of control

* * *

Test system: L1210 leukemia ip in BDF1 mice, survival T/C
Assay: NCI In Vivo Anticancer Drug Screen. Data for tumor model L1210 Leukemia (intraperitoneal) in B6D2F1 (BDF1) mice
Conditions: endpoint: mean survival time; dose: 200.0 mg/kg/injection; schedule: Q01DX001 (ip); vehicle: saline with Tween-80; higher = longer survival
Toxic doses and inconclusive results are not listed.
measurement-kind: T/C

// worked examples, T/C included
structure	T/C
c1ccc(C2=Nc3ccccc3-c3ccccc3N2)cc1	103 % of control
CC(C)c1ccc(C(c2ccc(C(C)C)cc2)c2ccc(C(C)C)cc2)cc1	91 % of control
CCOC(=O)c1ccc(NC(=O)Nc2ccccc2OC)cc1	92 % of control
O=C1C=Cc2c(ccc3c4c(ccc23)=CC(=O)C=C4)=C1	90 % of control

Would you kindly look at the next entry?
Query `OC1(CCC2OCCO2)c2ccccc2-c2ccccc21` yields T/C of 90 % of control

* * *

System: L1210 leukemia ip in BDF1 mice, survival T/C
Assay: NCI In Vivo Anticancer Drug Screen. Data for tumor model L1210 Leukemia (intraperitoneal) in B6D2F1 (BDF1) mice
Conditions: endpoint: mean survival time; dose: 200.0 mg/kg/injection; schedule: Q01DX009 (ip); vehicle: saline with Tween-80; higher = longer survival
Toxic doses and inconclusive results are not listed.
measurement-kind: T/C

Query `CO/C=C1\Cc2cc(OC)c(OC)cc2C1=O` yields T/C of 104 % of control

Query `CCCCOC(=O)c1ccc(OC(=O)NC)cc1` yields T/C of 101 % of control

* * *

System: L1210 leukemia ip in BDF1 mice, survival T/C
Test: NCI In Vivo Anticancer Drug Screen. Data for tumor model L1210 Leukemia (intraperitoneal) in B6D2F1 (BDF1) mice
Conditions: endpoint: mean survival time; dose: 400.0 mg/kg/injection; schedule: Q01DX001 (ip); vehicle: saline with Tween-80; higher = longer survival
Toxic doses and inconclusive results are not listed.
measurement-kind: T/C

compound	experimental-target	T/C
O=C1C=Cc2c(ccc3c4c(ccc23)=CC(=O)C=C4)=C1	L1210 leukemia ip in BDF1 mice, survival T/C	90 % of control
O=C1c2ccccc2C(=O)N1CN1CCOCC1	L1210 leukemia ip in BDF1 mice, survival T/C	98 % of control
CC(=O)Oc1c2ccsc2cc2sccc12	L1210 leukemia ip in BDF1 mice, survival T/C	94 % of control
Nc1nc(SCc2ccccc2)c2ncnnc2n1	L1210 leukemia ip in BDF1 mice, survival T/C	98 % of control
Cc1ccc(C)c(NC(=S)NC(=O)c2ccc(Cl)cc2Cl)c1	L1210 leukemia ip in BDF1 mice, survival T/C	100 % of control

Query C=C1CC2C=CC1C2 (stereo unspecified) (tested in a mixture with another compound) yields T/C of 94 % of control

* * *

Test system: L1210 leukemia ip in BDF1 mice, survival T/C
Experiment: NCI In Vivo Anticancer Drug Screen. Data for tumor model L1210 Leukemia (intraperitoneal) in B6D2F1 (BDF1) mice
Details: endpoint: mean survival time; dose: 200.0 mg/kg/injection; schedule: Q01DX001 (ip); vehicle: Klucel (hydroxypropylcellulose) (HPC); higher = longer survival
Toxic doses and inconclusive results are not listed.
Each entry below carries its reported T/C.

compound	T/C
CCCCCNc1ccnc(=O)[nH]1	96 % of control
CN(C(=O)C1(C)CC2C=CC1C2)c1ccccc1 (stereo not given)	102 % of control
CC(=O)OCC(OC(C)=O)C(OC(C)=O)C(C=O)OC(C)=O (stereo not given)	97 % of control
CC(=O)OC1([N+](=O)[O-])c2ccccc2C2CC1c1ccccc12 (stereo not given)	99 % of control
CC(C)(C)OC(=O)C1(C(=O)OC(C)(C)C)C2CCCCC21 (stereo not given)	90 % of control

Short answer on L1210 leukemia ip in BDF1 mice, survival T/C for CN1C(=O)C2C3C=CC(C3)C2C1=O (stereo not given) , T/C: 101 % of control

Short answer on L1210 leukemia ip in BDF1 mice, survival T/C for CCC(O)(C1=NC(C)(C)CO1)c1ccncc1Br (stereo not given) , T/C: 94 % of control

Short answer on L1210 leukemia ip in BDF1 mice, survival T/C for `COc1ccccc1-n1c(O)c(N=Nc2ccc(Cl)cc2)c(=O)n(-c2ccc(Cl)cc2)c1=S` , T/C: 100 % of control

Short answer on L1210 leukemia ip in BDF1 mice, survival T/C for `CC1C=CC=CC=C1` , T/C: 90 % of control

Short answer on L1210 leukemia ip in BDF1 mice, survival T/C for CC(C)CC(C)c1c(N)nc(N)[nH]c1=O (stereo not given) , T/C: 103 % of control

* * *

System: L1210 leukemia ip in BDF1 mice, survival T/C
Assay: NCI In Vivo Anticancer Drug Screen. Data for tumor model L1210 Leukemia (intraperitoneal) in B6D2F1 (BDF1) mice
Conditions: endpoint: mean survival time; dose: 400.0 mg/kg/injection; schedule: Q04DX003 (ip); vehicle: saline with Tween-80; higher = longer survival
Toxic doses and inconclusive results are not listed.
measurement-kind: T/C

// worked examples, T/C included
compound	measurement-kind	value
CCOC(=O)Nc1cccc(Cl)c1Cl	T/C	93 % of control
CCCCCCCCCCCCN1CCCN(CCCCCCCCCCCC)CC1	T/C	90 % of control

Short answer on L1210 leukemia ip in BDF1 mice, survival T/C for `O=C(Nc1ccc2c(c1)OCO2)O/N=C\c1ccccn1` , T/C: 95 % of control

Short answer on L1210 leukemia ip in BDF1 mice, survival T/C for `CCC(=O)Nc1cccc(OC(=O)NC2CCCCC2)c1` , T/C: 91 % of control

Short answer on L1210 leukemia ip in BDF1 mice, survival T/C for `COc1ccc(OC(=O)Nc2ccccc2[N+](=O)[O-])cc1` , T/C: 95 % of control

Short answer on L1210 leukemia ip in BDF1 mice, survival T/C for `COC(=O)C1CC[N-]CC1.COC(=O)C1CC[N-]CC1.[Cl][Pt+2][Cl]` , T/C: 106 % of control

Short answer on L1210 leukemia ip in BDF1 mice, survival T/C for COC1OC(CBr)C(OC(C)=O)C(OC(C)=O)C1OC(C)=O (stereo unspecified) , T/C: 98 % of control

Short answer on L1210 leukemia ip in BDF1 mice, survival T/C for `O=C1c2cc([N+](=O)[O-])ccc2-c2cc(Cl)ccc21` , T/C: 97 % of control

Short answer on L1210 leukemia ip in BDF1 mice, survival T/C for `CN(C)N=Nc1ccc(C#N)cc1` , T/C: 108 % of control

Short answer on L1210 leukemia ip in BDF1 mice, survival T/C for CCOC(=O)C(O)c1ccccc1 (stereo unspecified) , T/C: 98 % of control

Short answer on L1210 leukemia ip in BDF1 mice, survival T/C for `NNc1cnc2ccccc2n1` , T/C: 113 % of control

Short answer on L1210 leukemia ip in BDF1 mice, survival T/C for `Cc1ccc(N2CCN(c3ccc([N+](=O)[O-])cc3)CC2)cc1Cl` , T/C: 98 % of control

Short answer on L1210 leukemia ip in BDF1 mice, survival T/C for CCCCC(CC)COC(OCC(CC)CCCC)C(OCC(CC)CCCC)OCC(CC)CCCC (stereo unspecified) , T/C: 91 % of control

Short answer on L1210 leukemia ip in BDF1 mice, survival T/C for `CN(C(=O)c1cccnc1)c1ccccc1` , T/C: 107 % of control

Short answer on L1210 leukemia ip in BDF1 mice, survival T/C for `Cc1ccc(S(=O)(=O)NN)cc1` , T/C: 88 % of control

Short answer on L1210 leukemia ip in BDF1 mice, survival T/C for `Nc1ccc(S(=O)(=O)Nc2ccc(C(=O)O)cc2)cc1` , T/C: 98 % of control
